# measured-target: STING (Homo sapiens, UniProt Q86WV6, G230A/H232R/R293Q/R71H)
# Construct: THP-1 Lucia ISG cells (InvivoGen, thpl-isg); host or cells: THP-1 Lucia ISG cells
# Sequence (Q86WV6 whole entry R71H/G230A/H232R/R293Q): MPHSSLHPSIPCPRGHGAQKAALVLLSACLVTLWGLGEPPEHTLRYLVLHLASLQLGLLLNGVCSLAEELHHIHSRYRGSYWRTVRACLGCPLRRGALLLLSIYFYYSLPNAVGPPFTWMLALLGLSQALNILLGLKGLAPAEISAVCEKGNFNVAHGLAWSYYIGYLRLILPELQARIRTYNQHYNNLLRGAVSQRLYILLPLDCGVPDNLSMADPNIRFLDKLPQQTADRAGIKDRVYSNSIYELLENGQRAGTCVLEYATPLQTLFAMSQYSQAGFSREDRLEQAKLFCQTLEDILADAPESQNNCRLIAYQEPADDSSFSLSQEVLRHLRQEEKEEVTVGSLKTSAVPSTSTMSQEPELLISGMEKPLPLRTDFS
# assay-procedure: IRF-Lucia Reporter STING Inhibition Assay (THP-1 Lucia ISG cells)
# Assay type: cell-based
# measurement-conditions: at 50 μm; 1 μM 2,3-cGAMP; 20 hours
parameter: % STING INHIBITION, % at 50 μm (%)

Observe how each entry below is paired with its result.
> print(dat)
                                  structure  result.number
1  O=C(O)c1cc(O)cc(NCc2ccc(-c3ccc(F)cc3)cc2)c1             80
2  Cc1cc(-c2ccc(CNc3ccc(O)c(C(=O)O)c3)cc2)ccc1F             81
3   COc1ccc(NCc2ccc(-c3ccc(F)cc3)cc2)cc1C#N              0
4  COc1ccc(NCc2ccc(-c3ccc(F)cc3)cc2)cc1C(=O)O             53
5  O=C(O)c1cc(NCc2ccc(-c3ccc(O)cc3)cc2)ccc1O              0

(a) COc1cc(F)ccc1-c1ccc(CNc2ccc(O)c(C(=O)O)c2)cc1
(b) O=C(O)c1cc(NCc2ccc(-c3ccc(C(F)(F)F)cc3)cc2)ccc1O
Which is greater in % STING INHIBITION, % at 50 μm, the first item a or the second item b ? Your choice should be expressed through its label.
b
